# Experiment description: AUC in mouse at 10 mg/kg, po measured upto 24 hrs by LC-MS analysis
# Type: ADME, organism-based
# Experimental context: in vivo
Measured attribute: AUC at 24 h (ng·h/mL)
Give just the numeric value; ng·h/mL need not be written.

// below: answered compounds
>>> df
                              smiles_string  measured_attribute  measured
0  O=C1CCN(c2cc(C(=O)N3CCC(CC4CCN(c5ccc(-c6cnc7[nH]cc(-c8cnn(CCF)c8)c7n6)cn5)CC4)CC3)ccc2Cl)C(=O)N1         AUC at 24 h      9200
1  CCN1CCC(n2cc(-c3c[nH]c4ncc(-c5ccc(N6CCC(CC7CCN(C(=O)c8ccc(Cl)c(N9CCC(=O)NC9=O)c8)CC7)CC6)nc5)nc34)cn2)CC1         AUC at 24 h       295

Then this compound:
Record request: AUC at 24 h value, item Cn1cc(-c2c[nH]c3ncc(-c4ccc(N5CCC(CC6CCN(C(=O)c7ccc(Cl)c(N8CCC(=O)NC8=O)c7)CC6)CC5)nc4)nc23)cn1 2210

###

Target protein (sequence): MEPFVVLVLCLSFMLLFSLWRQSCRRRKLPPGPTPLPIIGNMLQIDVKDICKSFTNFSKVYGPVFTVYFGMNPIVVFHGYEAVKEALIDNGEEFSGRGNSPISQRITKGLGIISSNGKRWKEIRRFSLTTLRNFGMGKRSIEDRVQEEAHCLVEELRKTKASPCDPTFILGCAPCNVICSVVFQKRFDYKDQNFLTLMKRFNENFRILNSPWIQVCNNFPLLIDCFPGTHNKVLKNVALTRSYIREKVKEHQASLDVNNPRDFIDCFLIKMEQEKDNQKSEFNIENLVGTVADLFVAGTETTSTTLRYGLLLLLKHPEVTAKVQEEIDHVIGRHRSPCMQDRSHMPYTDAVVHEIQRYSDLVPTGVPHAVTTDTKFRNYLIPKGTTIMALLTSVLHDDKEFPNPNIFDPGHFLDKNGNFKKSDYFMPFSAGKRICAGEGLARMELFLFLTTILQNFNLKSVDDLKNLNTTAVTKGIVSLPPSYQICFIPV
Measured attribute: IC50

Suppose we examine the compound O=C1CCN(c2cc(C(=O)N3CCC(CC4CCN(c5ccc(-c6cnc7[nH]cc(-c8cnn(CC(F)(F)F)c8)c7n6)cn5)CC4)CC3)ccc2Cl)C(=O)N1 ; what IC50 value has been reported? > 10 µM

###

# Experiment description: AUC(0 to 24 hrs) in female Sprague-Dawley rat at 30 mg/kg/day, po measured at day 1
# Assay type: ADME, organism-based
# Experimental context: in vivo, time 1 day
Measured attribute: AUC(0-t) at 24 h (ng·h/mL)
Just the number please, in ng·h/mL, no unit attached.

GET /values?readout=AUC(0-t) at 24 h&item= O=C1CCN(c2cc(C(=O)N3CCC(CC4CCN(c5ccc(-c6cnc7[nH]cc(-c8cnn(CC(F)(F)F)c8)c7n6)cn5)CC4)CC3)ccc2Cl)C(=O)N1 51300

###

# Experiment description: AUCinfinity in Beagle dog at 1 mg/kg, iv measured upto 24 hrs by LC-MS analysis
# Type: ADME, organism-based, Canis lupus familiaris
# Experimental context: in vivo
Measured attribute: AUC(0-inf) (ng·h/mL)
Write the answer as a number in ng·h/mL, unit excluded.

Fill blank: measured AUC(0-inf) of the compound O=C1CCN(c2cc(C(=O)N3CCC(CC4CCN(c5ccc(-c6cnc7[nH]cc(-c8cnn(CC(F)(F)F)c8)c7n6)cn5)CC4)CC3)ccc2Cl)C(=O)N1 is ____. 996

###

# Assayed target: hERG (KCNH2) (Homo sapiens)
# Sequence (Q12809 whole entry): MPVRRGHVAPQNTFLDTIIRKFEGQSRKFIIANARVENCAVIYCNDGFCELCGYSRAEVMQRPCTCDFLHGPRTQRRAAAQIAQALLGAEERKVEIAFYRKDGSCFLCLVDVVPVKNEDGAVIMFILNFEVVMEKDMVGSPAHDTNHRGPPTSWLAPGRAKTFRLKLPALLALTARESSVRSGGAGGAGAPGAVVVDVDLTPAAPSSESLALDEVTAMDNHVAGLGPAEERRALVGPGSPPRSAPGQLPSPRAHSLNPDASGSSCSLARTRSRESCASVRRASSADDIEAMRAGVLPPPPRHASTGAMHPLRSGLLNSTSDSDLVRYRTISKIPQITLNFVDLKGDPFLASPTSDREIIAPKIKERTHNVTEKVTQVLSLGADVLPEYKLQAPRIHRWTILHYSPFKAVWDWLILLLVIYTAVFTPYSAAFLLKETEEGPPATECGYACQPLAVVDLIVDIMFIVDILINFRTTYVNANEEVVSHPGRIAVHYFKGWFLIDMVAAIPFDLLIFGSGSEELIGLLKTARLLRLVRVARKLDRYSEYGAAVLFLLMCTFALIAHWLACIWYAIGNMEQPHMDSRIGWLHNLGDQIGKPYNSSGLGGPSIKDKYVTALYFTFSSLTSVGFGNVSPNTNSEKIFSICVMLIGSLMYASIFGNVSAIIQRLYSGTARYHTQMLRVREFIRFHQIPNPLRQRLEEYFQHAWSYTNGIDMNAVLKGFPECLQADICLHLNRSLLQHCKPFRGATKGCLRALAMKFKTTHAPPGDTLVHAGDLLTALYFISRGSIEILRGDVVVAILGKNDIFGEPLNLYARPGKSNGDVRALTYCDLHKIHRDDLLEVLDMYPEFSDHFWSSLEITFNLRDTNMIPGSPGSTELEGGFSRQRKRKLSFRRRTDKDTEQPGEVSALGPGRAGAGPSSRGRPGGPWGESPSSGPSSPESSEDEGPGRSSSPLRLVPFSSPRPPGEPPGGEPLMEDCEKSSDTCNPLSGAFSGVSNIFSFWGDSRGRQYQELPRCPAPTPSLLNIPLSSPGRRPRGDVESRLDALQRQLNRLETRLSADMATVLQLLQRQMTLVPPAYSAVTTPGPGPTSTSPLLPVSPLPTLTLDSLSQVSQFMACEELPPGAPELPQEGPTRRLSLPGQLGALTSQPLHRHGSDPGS
# Experiment description: Inhibition of human ERG at 3 uM by patch clamp method relative to control
# Assay type: toxicity
Measured attribute: inhibition at 3 µM (%)
Number only, in %; omit the unit.

Consider the compound O=C1CCN(c2cc(C(=O)N3CCC(CC4CCN(c5ccc(-c6cnc7[nH]cc(-c8cnn(CC(F)(F)F)c8)c7n6)cn5)CC4)CC3)ccc2Cl)C(=O)N1 and give its measured inhibition at 3 µM. 4.36

###

# Experiment description: Tmax in female Sprague-Dawley rat at 2 mg/kg/day, po measured at day 1
# Format: ADME, organism-based
# Experimental context: in vivo, time 1 day
Measured attribute: Tmax (h)
# output: bare number, implied unit h

I am curious: what Tmax value has been reported for O=C1CCN(c2cc(C(=O)N3CCC(CC4CCN(c5ccc(-c6cnc7[nH]cc(-c8cnn(CC(F)(F)F)c8)c7n6)cn5)CC4)CC3)ccc2Cl)C(=O)N1 ? 6

###

# Experiment description: Toxicity in Sprague-Dawley rat assessed as no observable adverse effect level measured after 14 days
# Experimental context: in vivo, time 14 day
Measured attribute: NOAEL at 336 h (mg/kg/day)
Write it as a number; the unit mg/kg/day goes unstated.

Need NOAEL at 336 h of O=C1CCN(c2cc(C(=O)N3CCC(CC4CCN(c5ccc(-c6cnc7[nH]cc(-c8cnn(CC(F)(F)F)c8)c7n6)cn5)CC4)CC3)ccc2Cl)C(=O)N1 , thanks. 100

###

# Experiment description: Tmax in male Sprague-Dawley rat at 2 mg/kg/day, po measured at day 1
# Type: ADME, organism-based
# Experimental context: in vivo, time 1 day
Measured attribute: Tmax (h)
Entry rule: numbers only, all in h.

For O=C1CCN(c2cc(C(=O)N3CCC(CC4CCN(c5ccc(-c6cnc7[nH]cc(-c8cnn(CC(F)(F)F)c8)c7n6)cn5)CC4)CC3)ccc2Cl)C(=O)N1 , what is its reported Tmax? 8.67

###

# Experiment description: in vivo
# Experimental context: C57BL/6J, mouse, po, 10 mg/kg
Measured attribute: Cmax at 24 h (ng/mL)
Please state the figure in ng/mL; there is no need to write the unit.

Give its Cmax at 24 h value. Item: O=C1CCN(c2cc(C(=O)N3CCC(CC4CCN(c5ccc(-c6cnc7[nH]cc(-c8cnn(CC(F)(F)F)c8)c7n6)cn5)CC4)CC3)ccc2Cl)C(=O)N1 3180

###

# Experiment description: in vivo
# Experimental context: male, Sprague-Dawley, rat, po, 30 mg/kg
Measured attribute: Cmax at 336 h (ng/mL)
// return numeric value only (unit: ng/mL, not printed)

Given the molecule O=C1CCN(c2cc(C(=O)N3CCC(CC4CCN(c5ccc(-c6cnc7[nH]cc(-c8cnn(CC(F)(F)F)c8)c7n6)cn5)CC4)CC3)ccc2Cl)C(=O)N1 , what is its reported Cmax at 336 h? 3200

###

Items are presented alongside their recorded AUC at 24 h.
# Experiment description: AUC in mouse at 2 mg/kg, iv measured upto 24 hrs by LC-MS analysis
# Assay type: ADME, organism-based
# Experimental context: in vivo
Expressed in ng·h/mL, but write only the number.

Illustrative cases are given below, each with its answer.
>>> print(df.to_string())
                              smiles_string  measured
0  CCN1CCC(n2cc(-c3c[nH]c4ncc(-c5ccc(N6CCC(CC7CCN(C(=O)c8ccc(Cl)c(N9CCC(=O)NC9=O)c8)CC7)CC6)nc5)nc34)cn2)CC1       874
1  O=C1CCN(c2cc(C(=O)N3CCC(CC4CCN(c5ccc(-c6cnc7[nH]cc(-c8cnn(CCF)c8)c7n6)cn5)CC4)CC3)ccc2Cl)C(=O)N1      7400

What value of AUC at 24 h has been reported for the following compound? Cn1cc(-c2c[nH]c3ncc(-c4ccc(N5CCC(CC6CCN(C(=O)c7ccc(Cl)c(N8CCC(=O)NC8=O)c7)CC6)CC5)nc4)nc23)cn1 4030

###

# Experiment description: in vitro
# Experimental context: human, liver microsomes
Measured attribute: half-life at 0.75 h, 1 µM

So what's the measured half-life at 0.75 h, 1 µM for this one? O=C1CCN(c2cc(C(=O)N3CCC(CC4CCN(c5ccc(-c6cnc7[nH]cc(-c8cnn(CC(F)(F)F)c8)c7n6)cn5)CC4)CC3)ccc2Cl)C(=O)N1 > 5 h

###

# Experiment description: AUC(0 to 24 hrs) in female Sprague-Dawley rat at 2 mg/kg/day, po measured at day 1
# Assay type: ADME, organism-based
# Experimental context: in vivo, time 1 day
Measured attribute: AUC(0-t) at 24 h (ng·h/mL)
All answers are understood in ng·h/mL, so give the number only.

Return reported AUC(0-t) at 24 h; argument: O=C1CCN(c2cc(C(=O)N3CCC(CC4CCN(c5ccc(-c6cnc7[nH]cc(-c8cnn(CC(F)(F)F)c8)c7n6)cn5)CC4)CC3)ccc2Cl)C(=O)N1 539

###

# Experiment description: Tmax in female Sprague-Dawley rat at 2 mg/kg/day, po measured at day 14
# Format: ADME, organism-based
# Experimental context: in vivo, time 14 day
Measured attribute: Tmax (h)
Your answer should be a plain number; it is taken to be in h.

Please give the measured Tmax for this compound: O=C1CCN(c2cc(C(=O)N3CCC(CC4CCN(c5ccc(-c6cnc7[nH]cc(-c8cnn(CC(F)(F)F)c8)c7n6)cn5)CC4)CC3)ccc2Cl)C(=O)N1 6
